Reported apparent KD of MS2 coat protein by item:
# System: MS2 coat protein
# EXPERIMENT_DESCRIPTION: apparent KD of MS2 coat protein; higher = weaker reporter binding
# TEST_SETTINGS: Eterna round: R107; input ligand: theophylline 20 uM
Numbers only; they are read as nM.

BIOPOLYMER_SEQUENCE	apparent KD of MS2 coat protein (nM)
AUACAUGAGGAUCACCCAUGUCAUUCAGAAGGAGCGUCAUUUUAGACAGGUAGGUCGCUGUUAUUUUUAUUAUUCUUUAUGUUUU [JR_Nu_ExcArginiA_Sub025]	27.2
UUUUUUUUGGGAAGGAGCGGGAACAUGUGGAUCUCCCAUGUACAUGAGGAUCACCCAUGUACCCAGGUAGGUCGCUCAUUUUUUU [Exclusion - Arginine B]	38.6
GGCAGUCAUAGCAGGGCAAAUAUACUCGAAGGAGCGUCAUAGUAGGCAGGUAGGUCGCGAGACAUGAGGAUCACCCAUGUAGAGA [uuumullin]	46
GCGCUAUUUAUUGAUACCAGAUACAGGAAUCACAUGAGGAUCACCCAUGUGGAAUGAAGGAUCCCUUGGCAGCAAUAGUCAAAAU [theeternabot_sameState_MS2_Theo_B_9]	19.6

*Q* Form field: reported apparent KD of MS2 coat protein of AAUAACAUGAGGAUCACCCAUGUAAGUAAACGAGGACCGGUACGGCCGCCACUCGAAUAAAUAAAGUACCGGUAAGAUCCAGGGA [Default title]
*A* 19

*Q* Another sequence: UACCGAUGAAGAAGGAGCGUAUGCUUAUAUGAUGGUAACAUGAGGAUCACCCAUGUCAGUAUACAGGUAGGUCGCUUCAUCGGUA [EAB NP+V+V2 #22]
*A* 68.6

* * *

# Tested on: K4 kissing-loop RNA reporter;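 note: bound reporter read as fluorescence of individual clusters on recovered sequencing chips by microscopy, with normalized cluster intensities fitted with a binding model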
# EXPERIMENT_DESCRIPTION: apparent KD of K4 kissing-loop reporter; higher = weaker reporter binding
# TEST_SETTINGS: Eterna round: R107; input ligand: arginine 13.2 mM
MEASURE: apparent KD of K4 kissing-loop reporter
Phrase the answer as number then unit, nothing more needed.

BIOPOLYMER_SEQUENCE	apparent KD of K4 kissing-loop reporter
GGAGUUACCUGGGAUACCAGCCGGAGGCCCAGAGCUCGGAGUGAUGUUCUGGGAUGUUUCGGCCCUUGGCAGCUCUGGGUCUCCC [#2 Exclusion - Theophylline B Attempt #6 (HarryS)]	0.512 µM

*Q* Recall the recorded apparent KD of K4 kissing-loop reporter for UAAGUCUUAUCGGCCGCCACUCAUUACACGAAGUGAUGUUUCGGGUUUUAGACAAAUAAUUUUUGGAGGACCGGGAUACGAGAAA [theeternabot_sameState_KL_Trp_B_49] with K4 kissing-loop RNA reporter and state it.
*A* 0.113 µM

*Q* Another sequence: UUAUAACCCAGUGAUGUUGGGUAGCGGCCACGAGGACCGGUACGGCCGCCACUCGAGGUUUAACCAGUGAUGUUGGACUAUAUAA [Same state Tryptophan A GF 4]
*A* 0.0352 µM

*Q* Another sequence: GCCAGAGCGCGAAGGAGCGCCGUGACAGGUUACUGCCUUGGGCAGUGAUGUUGCUCAAUCUGGCAGGUAGGUCGCGUGCUCUGGC
*A* 0.185 µM

*Q* Another sequence: CUGACCAACAGCGAUACCAGUGUGGAGUGAUGUUCCCUGGUCCGGGCUGAUGUUCCCUUGCGCCCUUGGCAGCGCAGAAGCAGGU [Exclusion Theophylline B GF 13]
*A* 0.295 µM

*Q* Another sequence: CCUAUCUCAUACGAUACCAGUCAAUGAAAUUUUAUCAAUGCCAUCACCGAGUGAUGUUCGGACCCUUGGCAGCGUAUGGGAUAGG [Ex Theophylline B K4 3]
*A* 0.195 µM

Origin of values: the supplement of paper PMC9170038
